Would you mind telling me the reported ΔTm at 100 µM of each entry?
# TARGET_OR_SYSTEM: PtGSTU20 (Populus trichocarpa)
# Sequence (D2X9R3 entry or part of it): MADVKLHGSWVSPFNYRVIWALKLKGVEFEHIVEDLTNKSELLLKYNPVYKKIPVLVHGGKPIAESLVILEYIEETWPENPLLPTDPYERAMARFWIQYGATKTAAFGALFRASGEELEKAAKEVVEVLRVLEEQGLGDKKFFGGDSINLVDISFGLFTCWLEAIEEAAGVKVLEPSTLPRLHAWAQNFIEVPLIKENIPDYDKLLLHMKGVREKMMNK
# ASSAY_INFO: Thermal shift assay (SYPRO orange)
# Format: binding
# DETAILS: PtGSTU20 20 µM, compound 100 µM, vs DMSO reference; flavonoid set (Table S3, Figure 4); read-out: ΔTd (denaturation temperature difference)
Express the reported value numerically, then name its unit.

>  <CHEMICAL_STRING>
O=C1C[C@@H](c2ccccc2)Oc2cc(O)cc(O)c21

>  <ΔTm at 100 µM>
1.68 °C

$$$$
>  <CHEMICAL_STRING>
O=C(CCc1ccc(O)cc1)c1c(O)cc(O)cc1O

>  <ΔTm at 100 µM>
3.11 °C

$$$$
>  <CHEMICAL_STRING>
O=c1c(O)c(-c2ccccc2)oc2cc(O)cc(O)c12

>  <ΔTm at 100 µM>
7.42 °C

$$$$

Lab note: next compound to report on.
Qu. Indicate its recorded ΔTm at 100 µM; the compound in question is `O=C(/C=C/c1ccc(O)c(O)c1)c1ccc(O)cc1O`
Ans. 2.32 °C

###

# TARGET_OR_SYSTEM: PtGSTU20 (Populus trichocarpa)
# ASSAY_INFO: Competition (inhibition) assay of GSH-conjugation with PITC as substrate
# Format: biochemical
ENDPOINT_NAME: Ki (µM)
Answers are plain numbers, in µM.

>  <CHEMICAL_STRING>
O=c1c(O)c(-c2ccc(O)cc2O)oc2cc(O)cc(O)c12

>  <TARGET_OR_SYSTEM>
PtGSTU20 (Populus trichocarpa)

>  <RESULT_VALUE>
16

$$$$

Next, consider the following compound.
Qu. Using PtGSTU20 (Populus trichocarpa) as the test system, report measured Ki of `O=c1cc(-c2ccccc2)oc2cc(O)c(O)c(O)c12` .
Ans. 7.1

###

# TARGET_OR_SYSTEM: PtGSTU19 (Populus trichocarpa, UniProt B9HKX9)
# Sequence (B9HKX9 entry or part of it): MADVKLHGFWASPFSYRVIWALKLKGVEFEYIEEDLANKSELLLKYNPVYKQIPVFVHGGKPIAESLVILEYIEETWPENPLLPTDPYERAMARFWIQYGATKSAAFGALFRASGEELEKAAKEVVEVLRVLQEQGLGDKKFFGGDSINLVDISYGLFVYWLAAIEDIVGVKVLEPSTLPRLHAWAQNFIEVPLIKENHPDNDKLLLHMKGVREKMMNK
# ASSAY_INFO: Competition (inhibition) assay of GSH-conjugation with PITC as substrate
# Type: biochemical
# DETAILS: read-out: K i
ENDPOINT_NAME: Ki
Quick note: unit goes after the number.

>  <CHEMICAL_STRING>
O=c1c(O)c(-c2ccccc2)oc2cc(O)cc(O)c12

>  <ENDPOINT_NAME>
Ki

>  <RESULT_VALUE>
157 µM

$$$$

Qu. Supply Ki value. Item: `O=C1C[C@@H](c2ccccc2)Oc2cc(O)cc(O)c21`
Ans. 152 µM

###

# TARGET_OR_SYSTEM: UniProtKB D2X9R3
# ASSAY_INFO: GSH-conjugation activity toward model substrates
# DETAILS: 25°C, fixed 1 mM GSH (0.7 mM with HNE), mean ± S.D., n = 3
ENDPOINT_NAME: k cat
Hey, just the number and the unit after it is fine.

>  <COMPOUND>
S=C=NCc1ccccc1 [BITC, benzyl-isothiocyanate]

>  <TARGET_OR_SYSTEM>
UniProtKB D2X9R3

>  <k cat>
10.4 ± 0.3 s⁻¹

$$$$
>  <COMPOUND>
O=[N+]([O-])c1ccc(Cl)c([N+](=O)[O-])c1

>  <TARGET_OR_SYSTEM>
UniProtKB D2X9R3

>  <k cat>
0.59 ± 0.03 s⁻¹

$$$$
>  <COMPOUND>
CCCC(=O)Oc1ccc([N+](=O)[O-])cc1 [PNP-butyrate, 4-nitrophenyl-butyrate]

>  <TARGET_OR_SYSTEM>
UniProtKB D2X9R3

>  <k cat>
0.020 ± 0.001 s⁻¹

$$$$

Proceed to the following item.
Qu. Please look at this compound and report its k cat: S=C=NCCc1ccccc1 [PITC, phenethyl-isothiocyanate]
Ans. 5.1 ± 0.1 s⁻¹
